Reported IC50 is given for each of the following compounds.
- tested target: human neutrophil elastase (HNE) (Homo sapiens, UniProt P08246)
- Sequence (P08246 30-247 limits assumed): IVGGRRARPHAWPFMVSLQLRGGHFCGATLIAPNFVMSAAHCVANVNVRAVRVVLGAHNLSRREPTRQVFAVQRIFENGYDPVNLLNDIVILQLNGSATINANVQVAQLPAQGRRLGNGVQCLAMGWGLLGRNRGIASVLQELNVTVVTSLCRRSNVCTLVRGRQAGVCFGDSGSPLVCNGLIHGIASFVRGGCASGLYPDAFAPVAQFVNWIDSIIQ
- measurement protocol: HNE enzyme activity assay (fluorogenic peptide substrate MeOSuc-Ala-Ala-Pro-Val-AMC)
- run parameters: human leukocyte elastase 0.00072 U/mL, substrate 100 μM, 25° C., 30 minutes, pH 7.5; at least two separate experiments; read-out: FINE inhibition (HNE enzyme inhibition, IC50 values)

Worked cases, answers included:
> print(dat)
                                   compound  test.value
1  Cc1c(-c2ccnn2-c2ccc(C#N)cc2)n(C(=O)N[C@H]2CCN(C)C2)c(=O)n1-c1cccc(C(F)(F)F)c1 [Example 47]      < 1 nM
2  Cc1c(-c2ccnn2-c2ccc(C#N)cc2)n(C)c(=O)n1-c1cccc(C(F)(F)F)c1 [Example 3]  1 to 10 nM
3  Cc1c(-c2ccnn2-c2ccc(C#N)cc2)n(C(=O)NCC[N+](C)(C)C)c(=O)n1-c1cccc(C(F)(F)F)c1 [Example 25]  1 to 10 nM

The compound identified as Cc1c(-c2nccn2-c2ccc(C#N)cc2)n(C(=O)NCc2ccc(S(C)(=O)=O)cc2)c(=O)n1-c1cccc(C(F)(F)F)c1 [Example 62] registered its IC50 at < 1 nM

The compound identified as Cc1c(-c2ccnn2-c2ccc(C#N)cc2)n(CC(=O)N(C)C)c(=O)n1-c1cccc(C(F)(F)F)c1 [Example 37] registered its IC50 at 1 to 10 nM

The compound identified as Cc1c(-c2ccnn2-c2ccc(C#N)cc2)n(C(=O)NCc2ccn(C)n2)c(=O)n1-c1cccc(C(F)(F)F)c1 [Example 17] registered its IC50 at < 1 nM

The compound identified as Cc1c(-c2ccnn2-c2ccc(C#N)cc2)n(C(=O)N[C@@H]2CCOC2)c(=O)n1-c1cccc(C(F)(F)F)c1 [Example 16] registered its IC50 at < 1 nM
